Assay: Antioxidant activity assessed as free radical scavenging activity incubated for 30 mins in dark by DPPH assay
Assay type: functional
property measured: IC50 (µM)

> print(dat)
                           molecular.string  property.measured  quantity.unit  quantitative.result
1   O=c1c(O)c(-c2ccc(O)c(O)c2)oc2cc(O)ccc12               IC50             µM                 10.1
2  C=C(C)[C@@H]1CCC(C)=C[C@H]1c1c(O)cc(CCCCC)cc1O               IC50             µM                 33.3
3           O=C1O[C@H]([C@@H](O)CO)C(O)=C1O               IC50             µM                 15.9
